system: Klebsiella pneumoniae; settings: Concentration 20 uM; ASSAY_TEST Inhibition of Bacterial Growth; detection method Absorption (OD600); MEDIA CAMHB; plate type 384well; NBS; CORNING #3640; time 18 hr
Results with a measured potency or affinity are listed apart.
I'd be grateful if you could share measured Inhibition for these entries.
Give bare numbers, in %.

Worked examples follow.
• CCCc1nc2c(C)cc(-c3nc4ccccc4n3C)cc2n1Cc1ccc(-c2ccccc2C(=O)O)cc1 = 15
• CC1(C)O[C@@H]2C[C@H]3[C@@H]4C[C@H](F)C5=CC(=O)C=C[C@]5(C)[C@@]4(F)[C@@H](O)C[C@]3(C)[C@]2(C(=O)CO)O1 [FLUOCINOLONE ACETONIDE] = -0.92

For the 6 compounds below, give their Inhibition values.
1. C=C1/C(=C\C=C2/CCC[C@]3(C)[C@@H]([C@H](C)CCCC(C)(C)O)CC[C@@H]23)C[C@@H](O)C[C@@H]1O [CALCITRIOL]
2. CC(COc1ccccc1)NC(C)C(O)c1ccc(O)cc1.Cl (stereo not given) [ISOXSUPRINE HYDROCHLORIDE]
3. Nc1nc2c(ncn2COCCO)c(=O)[nH]1 [ACYCLOVIR]
4. CNCCCN1c2ccccc2CCc2ccccc21.Cl [DESIPRAMINE HYDROCHLORIDE]
5. Cl.O=C1CN2Cc3c(ccc(Cl)c3Cl)N=C2N1 [ANAGRELIDE HYDROCHLORIDE]
6. CNCC[C@H](Oc1cccc2ccccc12)c1cccs1.Cl [DULOXETINE HYDROCHLORIDE]

1: 21.35; 2: 7.34; 3: 6.29; 4: 6.09; 5: 18.04; 6: 5.49

For the 5 compounds below, give their Inhibition values.
1. CC(=O)SCC(Cc1ccccc1)C(=O)NCC(=O)OCc1ccccc1 (stereo not given) [RACECADOTRIL]
2. CCCCCCCCCCC[C@@H](C[C@@H]1OC(=O)[C@H]1CCCCCC)OC(=O)[C@H](CC(C)C)NC=O [ORLISTAT]
3. CC(=O)OCC(=O)[C@@]1(O)CC[C@H]2[C@@H]3CCC4=CC(=O)C=C[C@]4(C)[C@H]3[C@@H](O)C[C@@]21C [PREDNISOLONE ACETATE]
4. N=c1cc(N2CCCCC2)nc(N)n1O
5. Cc1ccsc1C(=CCCN1CCC[C@@H](C(=O)O)C1)c1sccc1C.Cl [TIAGABINE HYDROCHLORIDE]

3.98
7.06
12.95
8.77
9.25
